Molecular target: SALL4 ZFC4 G921D (HT-SELEX) (Mus musculus, UniProt Q8BX22 870-940, G921D)
Sequence: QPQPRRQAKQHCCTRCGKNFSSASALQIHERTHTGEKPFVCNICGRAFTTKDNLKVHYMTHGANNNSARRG
Experiment: HT-SELEX; high values mean tight binding
Conditions: protein: recombinant; vector His6-GST; dsDNA, one strand shown
Please respond with reported binding signal for every item in the list.
Output spec: scalar in fold-change vs cycle 0, unitless text.

## Input binding signal lookup needed for GGCGTA , thanks.
## Output 0.377

## Input binding signal lookup needed for ATCCGA , thanks.
## Output 0.89

## Input binding signal lookup needed for ACTGAT , thanks.
## Output 1.43

## Input binding signal lookup needed for AGAGGA , thanks.
## Output 1.07

* * *

Target: SALL4 ZFC4 G921D (HT-SELEX) (Mus musculus, UniProt Q8BX22 870-940, G921D)
Sequence: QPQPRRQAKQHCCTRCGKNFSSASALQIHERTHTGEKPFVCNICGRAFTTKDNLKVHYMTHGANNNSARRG
Test: HT-SELEX; high values mean tight binding
Conditions: protein: recombinant; vector His6-GST; dsDNA, one strand shown
observable: binding signal (fold-change vs cycle 0)
Output spec: scalar in fold-change vs cycle 0, unitless text.

## Input binding signal lookup needed for CGTCCC , thanks.
## Output 0.351

## Input binding signal lookup needed for ATAGGC , thanks.
## Output 0.733

## Input binding signal lookup needed for AACCAG , thanks.
## Output 0.941

## Input binding signal lookup needed for CGCAAG , thanks.
## Output 0.411

## Input binding signal lookup needed for ACTATA , thanks.
## Output 1.76

## Input binding signal lookup needed for GCGACC , thanks.
## Output 0.237

## Input binding signal lookup needed for CAGCAG , thanks.
## Output 0.523

## Input binding signal lookup needed for ATCAAT , thanks.
## Output 1.9

## Input binding signal lookup needed for ACCCTC , thanks.
## Output 0.66

## Input binding signal lookup needed for GCATGA , thanks.
## Output 0.824

## Input binding signal lookup needed for CACAGG , thanks.
## Output 0.624

## Input binding signal lookup needed for CAGTGC , thanks.
## Output 0.491

## Input binding signal lookup needed for AGTGAC , thanks.
## Output 0.973

## Input binding signal lookup needed for TTCGAA , thanks.
## Output 1.15

## Input binding signal lookup needed for CCTTAG , thanks.
## Output 1.04

## Input binding signal lookup needed for ATACGG , thanks.
## Output 0.808

## Input binding signal lookup needed for AACGAT , thanks.
## Output 1.23

## Input binding signal lookup needed for CAAACA , thanks.
## Output 1.18

## Input binding signal lookup needed for ATAGAG , thanks.
## Output 1.38

## Input binding signal lookup needed for TAAGTA , thanks.
## Output 1.89

## Input binding signal lookup needed for AGGTAG , thanks.
## Output 0.998

## Input binding signal lookup needed for TGGCAA , thanks.
## Output 0.673

## Input binding signal lookup needed for CCTGCG , thanks.
## Output 0.246

## Input binding signal lookup needed for CTCGGC , thanks.
## Output 0.231

## Input binding signal lookup needed for CCCAGG , thanks.
## Output 0.401

## Input binding signal lookup needed for GGTACC , thanks.
## Output 0.608

## Input binding signal lookup needed for AGTTCG , thanks.
## Output 0.828

## Input binding signal lookup needed for CAGGGA , thanks.
## Output 0.629

## Input binding signal lookup needed for CGGTGC , thanks.
## Output 0.238

## Input binding signal lookup needed for GATTCA , thanks.
## Output 1.33

## Input binding signal lookup needed for CTCCAA , thanks.
## Output 0.924

## Input binding signal lookup needed for CCCGTC , thanks.
## Output 0.34

## Input binding signal lookup needed for ACCAGG , thanks.
## Output 0.658

## Input binding signal lookup needed for CCTTCA , thanks.
## Output 1.06

## Input binding signal lookup needed for GTTCAA , thanks.
## Output 1.3

## Input binding signal lookup needed for CGTCAA , thanks.
## Output 0.765

## Input binding signal lookup needed for ATAAAG , thanks.
## Output 1.79

## Input binding signal lookup needed for AATACT , thanks.
## Output 1.82

## Input binding signal lookup needed for GTTCTA , thanks.
## Output 1.33

## Input binding signal lookup needed for CATATA , thanks.
## Output 1.71

## Input binding signal lookup needed for CCATCC , thanks.
## Output 0.633

## Input binding signal lookup needed for GTAACA , thanks.
## Output 1.39

## Input binding signal lookup needed for AGTTTG , thanks.
## Output 1.22

## Input binding signal lookup needed for CAGATC , thanks.
## Output 0.964

## Input binding signal lookup needed for ATTGCG , thanks.
## Output 0.614

## Input binding signal lookup needed for GGCCGA , thanks.
## Output 0.196

## Input binding signal lookup needed for CGATAC , thanks.
## Output 0.902

## Input binding signal lookup needed for GCAGAC , thanks.
## Output 0.48

## Input binding signal lookup needed for CCACAG , thanks.
## Output 0.535

## Input binding signal lookup needed for AAGGCG , thanks.
## Output 0.425

## Input binding signal lookup needed for ATCCAG , thanks.
## Output 0.988

## Input binding signal lookup needed for AAATAA , thanks.
## Output 2.14

## Input binding signal lookup needed for AAAAGC , thanks.
## Output 0.953

## Input binding signal lookup needed for GGTTCA , thanks.
## Output 0.966

## Input binding signal lookup needed for AATAGA , thanks.
## Output 1.79

## Input binding signal lookup needed for AGGACG , thanks.
## Output 0.558

## Input binding signal lookup needed for GCTGTA , thanks.
## Output 0.75

## Input binding signal lookup needed for ACCGCA , thanks.
## Output 0.39

## Input binding signal lookup needed for GTATTA , thanks.
## Output 1.76

## Input binding signal lookup needed for CGTAAG , thanks.
## Output 0.905

## Input binding signal lookup needed for CTCGTA , thanks.
## Output 0.901

## Input binding signal lookup needed for GCCCAC , thanks.
## Output 0.271

## Input binding signal lookup needed for ACATTG , thanks.
## Output 1.28

## Input binding signal lookup needed for ACCGGA , thanks.
## Output 0.56

## Input binding signal lookup needed for ACTAAG , thanks.
## Output 1.45

## Input binding signal lookup needed for CGGGTA , thanks.
## Output 0.521

## Input binding signal lookup needed for CTAATA , thanks.
## Output 1.81

## Input binding signal lookup needed for CCACAA , thanks.
## Output 0.759

## Input binding signal lookup needed for AAATAC , thanks.
## Output 1.59

## Input binding signal lookup needed for ACATAA , thanks.
## Output 1.75

## Input binding signal lookup needed for GCTAGC , thanks.
## Output 0.477

## Input binding signal lookup needed for AAAGCG , thanks.
## Output 0.601

## Input binding signal lookup needed for CGCGAC , thanks.
## Output 0.202

## Input binding signal lookup needed for GACTCC , thanks.
## Output 0.705

## Input binding signal lookup needed for ATGTGG , thanks.
## Output 0.851

## Input binding signal lookup needed for AATTCT , thanks.
## Output 1.8

## Input binding signal lookup needed for GTCCAA , thanks.
## Output 0.828

## Input binding signal lookup needed for AAAGTG , thanks.
## Output 1.22

## Input binding signal lookup needed for CGTTAA , thanks.
## Output 1.17

## Input binding signal lookup needed for CCTCAA , thanks.
## Output 0.951

## Input binding signal lookup needed for AGGTGA , thanks.
## Output 1.04

## Input binding signal lookup needed for AATTAG , thanks.
## Output 1.75

## Input binding signal lookup needed for TATTAA , thanks.
## Output 2.25

## Input binding signal lookup needed for GCCAAC , thanks.
## Output 0.415

## Input binding signal lookup needed for ACCCCG , thanks.
## Output 0.353

## Input binding signal lookup needed for AGTGTC , thanks.
## Output 0.9

## Input binding signal lookup needed for CAACTG , thanks.
## Output 0.9

## Input binding signal lookup needed for AGTAAA , thanks.
## Output 1.78

## Input binding signal lookup needed for CGACAC , thanks.
## Output 0.48

## Input binding signal lookup needed for AAAATT , thanks.
## Output 1.94

## Input binding signal lookup needed for CTGAGA , thanks.
## Output 0.951

## Input binding signal lookup needed for GACAAA , thanks.
## Output 1.1

## Input binding signal lookup needed for CCCTAA , thanks.
## Output 0.952

## Input binding signal lookup needed for GCTCAA , thanks.
## Output 0.763

## Input binding signal lookup needed for ATCCCA , thanks.
## Output 0.979

## Input binding signal lookup needed for ATCGTC , thanks.
## Output 0.852
